The measurements presented in this section are drawn from patent US10597388B2.

Measured Plant response rating, Kochia accompanies every entry in the list below.
- System: kochia (Kochia scoparia)
- TEST_DESCRIPTION: Test D controlled growth environment herbicide test, pre- and postemergence
- Assay type: in vivo
- CONDITIONS_USED: Preemergence, 125 g ai/ha; scale 0 to 100 (0 no effect, 100 complete control)
Respond using a number only.

Example cases with answers are listed next.
{"columns": ["COMPOUND", "Plant response rating, Kochia"],
 "data": [
  ["COc1nn(C)c(=O)c(-c2c(C)ccc3ccccc23)c1O [Compound 54]", 30],
  ["CC(=O)Oc1c(C)nn(C)c(=O)c1-c1c(C)cc(C)c2ccccc12 [Compound 153]", 25],
  ["CC(=O)Oc1c(C)nn(C)c(=O)c1-c1ccc(F)c2ccccc12 [Compound 90]", 90]
]}

Short answer for CCC(=O)Oc1c(C)nn(C)c(=O)c1-c1c(C)sc2ccc(Cl)cc12 [Compound 109] : Plant response rating, Kochia was 80
